% binding (parent = 100) listing for selected binders.
# Target desc: T1, human C5 (human, UniProt P01031 19-673; P01031 678-1676, Beta and alpha chains are disulfide-linked and the protein is glycosylated.)
# T1 construct: Either in-house recombinant C5 or plasma derived C5 (CALBIOCHEM) was used; also called recombinant human C5; plasma derived human C5
# Protocol summary: Biacore, captured antibody, pH 7.4, 37 C;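 further: biacore binding response of anti-C5 antibody light chain variants captured on chip with human C5 injected, ACES running buffer containing 1.2 mM CaCl₂, parent light chain antibody set to 100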
Quantity measured: % binding (parent = 100) (%)

{"columns": ["Binder", "Quantity measured", "Assay value"],
 "data": [
  ["CFP0011 11L 96L (antibody, V domains shown) VH: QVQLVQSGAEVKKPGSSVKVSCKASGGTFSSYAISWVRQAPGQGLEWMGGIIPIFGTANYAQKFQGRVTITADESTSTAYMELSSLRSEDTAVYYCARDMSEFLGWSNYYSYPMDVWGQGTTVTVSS VL: DIQMTQSPSSLSASVGDRVTITCRASQSIEDDLAWYQQKPGKAPKLLIYHASSLQSGVPSRFSGSGSGTDFTLTISSLQPEDFATYYCQQSDNSPLTFGQGTKVEIK", "% binding (parent = 100)", 3.2],
  ["CFP0011 11L 34N (antibody, V domains shown) VH: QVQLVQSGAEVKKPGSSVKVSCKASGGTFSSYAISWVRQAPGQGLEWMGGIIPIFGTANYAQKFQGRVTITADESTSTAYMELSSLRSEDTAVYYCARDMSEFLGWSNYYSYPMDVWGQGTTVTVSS VL: DIQMTQSPSSLSASVGDRVTITCRASQSIEDDLNWYQQKPGKAPKLLIYHASSLQSGVPSRFSGSGSGTDFTLTISSLQPEDFATYYCQQSDNSPYTFGQGTKVEIK", "% binding (parent = 100)", 29.2],
  ["CFP0018 18L 30D (antibody, V domains shown) VH: QVQLVQSGAEVKKPGSSVKVSCKASGGTFSSYAISWVRQAPGQGLEWMGGIIPIFGTANYAQKFQGRVTITADESTSTAYMELSSLRSEDTAVYYCARQLYGYYELDIWGQGTLVTVSS VL: DIQMTQSPSSLSASVGDRVTITCRASQSIDDDLAWYQQKPGKAPKLLIYEASSLQSGVPSRFSGSGSGTDFTLTISSLQPEDFATYYCQQYNSYPLTFGQGTKVEIK", "% binding (parent = 100)", 17],
  ["CFP0011 11L 30A (antibody, V domains shown) VH: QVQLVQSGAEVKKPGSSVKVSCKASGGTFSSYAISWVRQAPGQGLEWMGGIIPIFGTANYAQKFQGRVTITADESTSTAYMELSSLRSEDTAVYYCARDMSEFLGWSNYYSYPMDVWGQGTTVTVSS VL: DIQMTQSPSSLSASVGDRVTITCRASQSIADDLAWYQQKPGKAPKLLIYHASSLQSGVPSRFSGSGSGTDFTLTISSLQPEDFATYYCQQSDNSPYTFGQGTKVEIK", "% binding (parent = 100)", 100],
  ["CFP0015 15L 94Y (antibody, V domains shown) VH: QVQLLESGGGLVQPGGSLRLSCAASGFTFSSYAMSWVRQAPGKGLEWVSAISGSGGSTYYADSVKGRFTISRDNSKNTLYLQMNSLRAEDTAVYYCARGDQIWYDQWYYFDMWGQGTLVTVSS VL: DIQMTQSPSSLSASVGDRVTITCRASQSIEDDLAWYQQKPGKAPKLLIYEASNLQSGVPSRFSGSGSGTDFTLTISSLQPEDFATYYCQQYDSYPLTFGQGTKVEIK", "% binding (parent = 100)", 46.1],
  ["CFP0015 15L 50Y (antibody, V domains shown) VH: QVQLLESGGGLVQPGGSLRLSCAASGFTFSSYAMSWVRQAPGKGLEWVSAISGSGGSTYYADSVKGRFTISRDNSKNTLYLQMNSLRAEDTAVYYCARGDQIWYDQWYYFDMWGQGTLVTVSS VL: DIQMTQSPSSLSASVGDRVTITCRASQSIEDDLAWYQQKPGKAPKLLIYYASNLQSGVPSRFSGSGSGTDFTLTISSLQPEDFATYYCQQYDSSPLTFGQGTKVEIK", "% binding (parent = 100)", 46.9],
  ["CFP0017 17L 53N (antibody, V domains shown) VH: QVQLVQSGAEVKKPGSSVKVSCKASGGTFSSYAISWVRQAPGQGLEWMGGIIPIFGTANYAQKFQGRVTITADESTSTAYMELSSLRSEDTAVYYCARGGWWGGALDYWGQGTLVTVSS VL: DIQMTQSPSSLSASVGDRVTITCRASQSIEDDLAWYQQKPGKAPKLLIYHASNLQSGVPSRFSGSGSGTDFTLTISSLQPEDFATYYCQQSDSYPLTFGQGTKVEIK", "% binding (parent = 100)", 52.9],
  ["CFP0018 18L 31N (antibody, V domains shown) VH: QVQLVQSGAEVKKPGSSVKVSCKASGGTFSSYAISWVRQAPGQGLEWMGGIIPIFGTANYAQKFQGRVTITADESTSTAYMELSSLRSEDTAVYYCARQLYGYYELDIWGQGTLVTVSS VL: DIQMTQSPSSLSASVGDRVTITCRASQSISNDLAWYQQKPGKAPKLLIYEASSLQSGVPSRFSGSGSGTDFTLTISSLQPEDFATYYCQQYNSYPLTFGQGTKVEIK", "% binding (parent = 100)", 130],
  ["CFP0021 21L 91S (antibody, V domains shown) VH: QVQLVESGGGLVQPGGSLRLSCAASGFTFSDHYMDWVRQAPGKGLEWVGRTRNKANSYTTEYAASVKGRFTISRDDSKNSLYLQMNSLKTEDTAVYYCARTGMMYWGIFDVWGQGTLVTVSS VL: DIQMTQSPSSLSASVGDRVTITCRASQSIEDDLAWYQQKPGKAPKLLIYHASTLQSGVPSRFSGSGSGTDFTLTISSLQPEDFATYYCQQSDSYPLTFGQGTKVEIK", "% binding (parent = 100)", 17.8],
  ["CFP0021 21L 30D (antibody, V domains shown) VH: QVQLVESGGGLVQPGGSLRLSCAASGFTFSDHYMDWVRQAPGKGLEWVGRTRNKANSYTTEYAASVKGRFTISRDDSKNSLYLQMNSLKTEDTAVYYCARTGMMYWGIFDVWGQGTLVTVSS VL: DIQMTQSPSSLSASVGDRVTITCRASQSIDDDLAWYQQKPGKAPKLLIYHASTLQSGVPSRFSGSGSGTDFTLTISSLQPEDFATYYCQQHDSYPLTFGQGTKVEIK", "% binding (parent = 100)", 87.5]
]}
